assayTarget: HER2 InsYVMA Ba/F3 cell line (Homo sapiens, UniProt P04626, DUP772-775, cells depend on it)
Sequence (P04626 with tags, fused parts or gaps DUP772-775): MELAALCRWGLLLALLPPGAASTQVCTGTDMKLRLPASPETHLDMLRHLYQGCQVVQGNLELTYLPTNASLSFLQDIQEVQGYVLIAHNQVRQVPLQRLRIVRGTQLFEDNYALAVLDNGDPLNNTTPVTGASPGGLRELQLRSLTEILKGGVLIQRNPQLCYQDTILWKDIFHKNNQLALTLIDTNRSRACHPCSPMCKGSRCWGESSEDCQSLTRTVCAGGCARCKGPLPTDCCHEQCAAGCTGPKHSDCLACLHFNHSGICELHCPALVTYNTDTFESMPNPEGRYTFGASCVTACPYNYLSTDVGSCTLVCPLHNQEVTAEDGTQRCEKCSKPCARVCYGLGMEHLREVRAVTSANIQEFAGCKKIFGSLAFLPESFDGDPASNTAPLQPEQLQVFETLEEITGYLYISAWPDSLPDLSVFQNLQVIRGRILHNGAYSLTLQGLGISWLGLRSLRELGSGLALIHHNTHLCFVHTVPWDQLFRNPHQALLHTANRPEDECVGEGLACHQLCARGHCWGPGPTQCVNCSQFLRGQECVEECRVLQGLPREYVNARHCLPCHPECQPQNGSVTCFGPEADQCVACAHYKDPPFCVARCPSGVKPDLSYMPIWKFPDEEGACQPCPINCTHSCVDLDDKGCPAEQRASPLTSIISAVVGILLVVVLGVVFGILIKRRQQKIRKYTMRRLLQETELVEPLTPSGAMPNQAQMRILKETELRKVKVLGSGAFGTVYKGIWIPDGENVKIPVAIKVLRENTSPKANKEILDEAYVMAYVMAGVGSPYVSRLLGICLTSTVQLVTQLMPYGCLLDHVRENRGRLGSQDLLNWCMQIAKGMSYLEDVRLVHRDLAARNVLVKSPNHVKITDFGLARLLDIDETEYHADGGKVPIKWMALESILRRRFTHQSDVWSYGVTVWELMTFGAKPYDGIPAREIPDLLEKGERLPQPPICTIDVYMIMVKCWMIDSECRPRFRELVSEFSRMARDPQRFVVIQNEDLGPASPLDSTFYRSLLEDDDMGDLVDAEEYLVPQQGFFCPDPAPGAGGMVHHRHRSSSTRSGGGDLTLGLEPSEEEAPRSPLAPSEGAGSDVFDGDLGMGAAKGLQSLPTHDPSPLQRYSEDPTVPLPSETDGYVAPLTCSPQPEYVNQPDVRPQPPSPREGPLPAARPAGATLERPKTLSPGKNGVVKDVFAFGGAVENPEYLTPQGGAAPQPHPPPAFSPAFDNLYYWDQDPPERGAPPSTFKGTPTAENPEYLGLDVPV
method: Ba/F3 cell proliferation MTS assay, HER2 InsYVMA
measurementConditions: 72 hours
experimentalEndpoint: EC50

Sample records with EC50:
C=CC(=O)Nc1cccc(N(C(=O)OCc2cc3ccccc3s2)c2ccnc(Nc3cnn(C)c3)n2)c1; 500 to 1000 nM
C=CC(=O)Nc1cccc(N(C(=O)OCc2ccc(Cl)cc2)c2ccnc(Nc3cnn(C)c3)n2)c1; 100 to 500 nM
Cn1cc(Nc2nccc(N(C(=O)OCc3ccc(F)cc3)c3cccc(NC(=O)/C=C/CN4CCC(O)CC4)c3)n2)cn1; > 1000 nM
C=CC(=O)Nc1cccc(N(C(=O)O[C@@H](C)c2ccc(F)cc2)c2ccnc(Nc3ccn(C)n3)n2)c1; 500 to 1000 nM
C=CC(=O)Nc1cccc(N(C(=O)OCc2ccc(F)cc2F)c2ccnc(Nc3cnn(C)c3)n2)c1; < 100 nM
C=CC(=O)Nc1cccc(N(C(=O)OCc2cc3ccccc3s2)c2ccnc(Nc3ccn(C)n3)n2)c1; > 1000 nM

// next item, EC50 requested
Query: Which measured EC50 value corresponds to C=CC(=O)Nc1cccc(N(C(=O)OCc2ccc(F)cc2)c2ccnc(Nc3cnn(CCN4CCOCC4)c3)n2)c1 ?
Response: < 100 nM

----------
assayTarget: EGFR wild type Ba/F3 cell line (Homo sapiens, UniProt P00533, cells depend on it, form not given)
method: Ba/F3 cell proliferation MTS assay, EGFR wild type
measurementConditions: 72 hours
pEC50: −log10 of the molar value.
experimentalEndpoint: pEC50

Sample records with pEC50:
CN(C)C/C=C/C(=O)Nc1cccc(N(C(=O)OCc2ccc(F)cc2)c2ccnc(Nc3cnn(C)c3)n2)c1; > 7.00
C=CC(=O)Nc1cccc(N(C(=O)OCc2ccc(F)cc2)c2ccnc(Nc3ccn(C)n3)n2)c1; > 7.00
C=CC(=O)Nc1cccc(N(C(=O)OCc2ccc(F)nc2)c2ccnc(Nc3cnn(C)c3)n2)c1; 6.30 to 7.00
C=CC(=O)Nc1cccc(N(C(=O)OCc2csc3ccccc23)c2ccnc(Nc3cnn(C)c3)n2)c1; 6.30 to 7.00
Cn1cc(Nc2nccc(N(C(=O)OCc3ccc(F)cc3)c3cccc(NC(=O)/C=C/CN4CCC(O)CC4)c3)n2)cn1; 6.30 to 7.00
C=CC(=O)Nc1cccc(N(C(=O)OCc2ccc(F)cc2)c2ccnc(Nc3cnn(C4CCN(C)CC4)c3)n2)c1; > 7.00
C=CC(=O)Nc1cccc(N(C(=O)OCc2ccccc2)c2ccnc(Nc3ccn(C)n3)n2)c1; > 7.00
C=CC(=O)Nc1cccc(N(C(=O)OCc2csc3ccccc23)c2ccnc(Nc3ccn(C)n3)n2)c1; < 6.00
C=CC(=O)Nc1cccc(N(C(=O)OCc2ccc(F)cc2)c2ccnc(Nc3cnn(CC(=O)NC)c3)n2)c1; > 7.00
C=CC(=O)Nc1cccc(N(C(=O)OCc2ccc(F)cc2)c2ccnc(Nc3cnn(C)c3)n2)c1; > 7.00

// next item, pEC50 requested
Query: Which measured pEC50 value corresponds to C=CC(=O)Nc1cccc(N(C(=O)OCc2cccc(F)c2)c2ccnc(Nc3ccn(C)n3)n2)c1 ?
Response: > 7.00

----------
pEC50 values for the molecules below.
assayTarget: HER2 wild type Ba/F3 cell line (Homo sapiens, UniProt P04626)
Sequence (P04626 whole entry, change not shown): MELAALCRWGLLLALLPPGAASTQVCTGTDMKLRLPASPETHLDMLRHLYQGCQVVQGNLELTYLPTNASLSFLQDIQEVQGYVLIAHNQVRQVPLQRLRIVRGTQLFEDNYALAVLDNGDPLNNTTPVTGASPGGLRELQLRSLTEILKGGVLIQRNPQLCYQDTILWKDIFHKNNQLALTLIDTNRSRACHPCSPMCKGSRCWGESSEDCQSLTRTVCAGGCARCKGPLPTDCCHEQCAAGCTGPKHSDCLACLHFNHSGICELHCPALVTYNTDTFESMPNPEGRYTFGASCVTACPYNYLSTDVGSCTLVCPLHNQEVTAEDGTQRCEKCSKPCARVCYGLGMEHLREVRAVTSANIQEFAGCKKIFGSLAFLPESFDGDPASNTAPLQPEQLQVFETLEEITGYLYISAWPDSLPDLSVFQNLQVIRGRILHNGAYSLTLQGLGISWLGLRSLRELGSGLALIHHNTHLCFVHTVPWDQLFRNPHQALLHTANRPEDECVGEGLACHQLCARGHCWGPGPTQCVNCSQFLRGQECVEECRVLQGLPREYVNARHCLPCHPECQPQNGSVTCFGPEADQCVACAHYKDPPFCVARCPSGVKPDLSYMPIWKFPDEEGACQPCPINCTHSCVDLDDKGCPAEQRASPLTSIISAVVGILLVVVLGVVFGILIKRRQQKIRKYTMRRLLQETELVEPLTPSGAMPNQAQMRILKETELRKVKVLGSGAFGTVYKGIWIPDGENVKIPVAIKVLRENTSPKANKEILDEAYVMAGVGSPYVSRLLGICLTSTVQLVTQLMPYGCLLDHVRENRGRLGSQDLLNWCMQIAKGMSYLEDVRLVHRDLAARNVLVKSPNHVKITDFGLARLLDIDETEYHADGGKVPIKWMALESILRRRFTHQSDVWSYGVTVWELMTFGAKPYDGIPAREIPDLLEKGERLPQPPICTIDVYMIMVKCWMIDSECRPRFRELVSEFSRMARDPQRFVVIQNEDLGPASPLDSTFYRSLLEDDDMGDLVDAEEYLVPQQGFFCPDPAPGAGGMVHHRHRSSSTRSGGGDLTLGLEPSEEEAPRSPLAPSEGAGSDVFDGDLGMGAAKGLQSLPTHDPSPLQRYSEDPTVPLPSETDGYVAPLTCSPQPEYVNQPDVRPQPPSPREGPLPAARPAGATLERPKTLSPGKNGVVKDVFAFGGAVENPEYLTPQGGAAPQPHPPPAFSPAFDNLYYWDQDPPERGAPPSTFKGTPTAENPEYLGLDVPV
method: Ba/F3 cell proliferation MTS assay, HER2 wild type
measurementConditions: HER2 wild type Ba/F3 cells, 72 hours
pEC50: −log10 of the molar value.

C=CC(=O)Nc1cccc(N(C(=O)OCc2ccc(F)cc2F)c2ccnc(Nc3cnn(C)c3)n2)c1; > 7.00
Cn1cc(Nc2nccc(N(C(=O)OCc3ccc(F)cc3)c3cccc(NC(=O)/C=C/CN4CCC(O)CC4)c3)n2)cn1; 6.30 to 7.00

Query: Which measured pEC50 value corresponds to C=CC(=O)Nc1cccc(N(C(=O)OCc2ccc(F)nc2)c2ccnc(Nc3cnn(C)c3)n2)c1 ?
Response: 6.30 to 7.00

Query: Quick one: C=CC(=O)Nc1cccc(N(C(=O)OCc2csc3ccccc23)c2ccnc(Nc3cnn(C)c3)n2)c1
Response: 6.30 to 7.00

Query: Quick one: C=CC(=O)Nc1cccc(N(C(=O)OCc2ccc(F)cc2)c2ccnc(Nc3cnn(C)c3C)n2)c1
Response: > 7.00

Query: Quick one: C=CC(=O)Nc1cccc(N(C(=O)OCc2ccc(Cl)cc2)c2ccnc(Nc3cnn(C)c3)n2)c1
Response: > 7.00

Query: Quick one: C=CC(=O)Nc1cccc(N(C(=O)OCc2ccc(F)cc2)c2ccnc(Nc3ccn(C)n3)n2)c1
Response: > 7.00

----------
assayTarget: HER2 InsYVMA Ba/F3 cell line (Homo sapiens, UniProt P04626, DUP772-775, cells depend on it)
method: Ba/F3 cell proliferation MTS assay, HER2 InsYVMA;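 further: murine Ba/F3 cells engineered to carry mutant HER2, viability read colorimetrically by MTS after 72 h of exposure, EC50 from sigmoidal non-linear regression of dose response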
measurementConditions: 72 hours
pEC50: −log10 of the molar value.
pEC50 values for the compounds below.

Sample records with pEC50:
C=CC(=O)Nc1cccc(N(C(=O)OCc2ccc(F)nc2)c2ccnc(Nc3cnn(C)c3)n2)c1; < 6.00
C=CC(=O)Nc1cccc(N(C(=O)OCc2ccc(F)nc2)c2ccnc(Nc3ccn(C)n3)n2)c1; < 6.00
C=CC(=O)Nc1cccc(N(C(=O)O[C@@H](C)c2ccc(F)cc2)c2ccnc(Nc3cnn(C)c3)n2)c1; > 7.00
CN(C)C/C=C/C(=O)Nc1cccc(N(C(=O)OCc2ccc(F)cc2)c2ccnc(Nc3cnn(C)c3)n2)c1; > 7.00
Cn1cc(Nc2nccc(N(C(=O)OCc3ccc(F)cc3)c3cccc(NC(=O)/C=C/CN4CCOCC4)c3)n2)cn1; 6.30 to 7.00
C=CC(=O)Nc1cccc(N(C(=O)OCc2csc3ccccc23)c2ccnc(Nc3cnn(C)c3)n2)c1; < 6.00

Query: Which measured pEC50 value corresponds to C=CC(=O)Nc1cccc(N(C(=O)OCc2ccc(F)cc2)c2ccnc(Nc3cnn(C4CCN(C)C4)c3)n2)c1 (stereo not shown) ?
Response: > 7.00

----------
assayTarget: EGFR InsSVD Ba/F3 cell line (Homo sapiens, UniProt P00533, DUP768-770, cells depend on it)
Sequence (P00533 with tags, fused parts or gaps DUP768-770): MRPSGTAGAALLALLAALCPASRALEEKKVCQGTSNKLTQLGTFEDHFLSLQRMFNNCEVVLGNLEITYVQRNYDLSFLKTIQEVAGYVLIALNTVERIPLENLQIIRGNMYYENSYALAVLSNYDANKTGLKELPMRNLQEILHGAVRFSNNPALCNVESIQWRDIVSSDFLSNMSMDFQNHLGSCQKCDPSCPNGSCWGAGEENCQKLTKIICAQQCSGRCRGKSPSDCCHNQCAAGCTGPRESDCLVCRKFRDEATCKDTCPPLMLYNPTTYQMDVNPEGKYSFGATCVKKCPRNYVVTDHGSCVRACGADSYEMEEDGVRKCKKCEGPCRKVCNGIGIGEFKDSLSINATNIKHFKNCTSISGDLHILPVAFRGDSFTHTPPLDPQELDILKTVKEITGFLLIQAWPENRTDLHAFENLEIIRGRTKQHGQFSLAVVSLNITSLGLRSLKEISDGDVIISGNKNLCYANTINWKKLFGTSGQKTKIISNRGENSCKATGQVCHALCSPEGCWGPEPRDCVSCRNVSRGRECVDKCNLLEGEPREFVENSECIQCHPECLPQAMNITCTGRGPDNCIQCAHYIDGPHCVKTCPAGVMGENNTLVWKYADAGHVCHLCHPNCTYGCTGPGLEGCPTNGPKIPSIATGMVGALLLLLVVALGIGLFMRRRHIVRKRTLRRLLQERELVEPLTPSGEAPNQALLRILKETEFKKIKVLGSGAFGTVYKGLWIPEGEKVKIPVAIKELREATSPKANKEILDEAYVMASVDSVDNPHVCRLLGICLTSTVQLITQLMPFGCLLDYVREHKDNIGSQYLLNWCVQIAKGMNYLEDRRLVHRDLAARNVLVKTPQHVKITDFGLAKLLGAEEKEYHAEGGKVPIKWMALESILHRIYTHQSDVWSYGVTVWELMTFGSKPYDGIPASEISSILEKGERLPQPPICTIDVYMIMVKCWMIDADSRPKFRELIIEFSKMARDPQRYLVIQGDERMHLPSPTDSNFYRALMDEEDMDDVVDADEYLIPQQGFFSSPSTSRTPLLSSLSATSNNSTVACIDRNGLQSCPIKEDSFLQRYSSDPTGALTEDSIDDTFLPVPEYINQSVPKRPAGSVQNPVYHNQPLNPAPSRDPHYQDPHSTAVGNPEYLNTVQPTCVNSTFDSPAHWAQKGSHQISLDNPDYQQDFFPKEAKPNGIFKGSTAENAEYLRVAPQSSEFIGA
method: Ba/F3 cell proliferation MTS assay, EGFR InsSVD
measurementConditions: EGFR InsSVD (D770_N771insSVD) Ba/F3 cells, 72 hours
EC50 values for the molecules below.

Cn1cc(Nc2nccc(N(C(=O)OCc3ccc(F)cc3)c3cccc(NC(=O)/C=C/CN4CCCCCC4)c3)n2)cn1 [Compound I-27]; 500 to 1000 nM
C=CC(=O)Nc1cccc(N(C(=O)OCc2ccc(Cl)cc2)c2ccnc(Nc3cnn(C)c3)n2)c1 [Compound I-9]; 100 to 500 nM
C=CC(=O)Nc1cccc(N(C(=O)OCc2ccc(F)cc2)c2ccnc(Nc3cnn(CCN4CCOCC4)c3)n2)c1 [Compound I-20]; 100 to 500 nM
C=CC(=O)Nc1cccc(N(C(=O)OCc2ccc(F)cn2)c2ccnc(Nc3ccn(C)n3)n2)c1 [Compound I-10]; 100 to 500 nM
C=CC(=O)Nc1cccc(N(C(=O)OCc2ccc(Cl)cc2)c2ccnc(Nc3ccn(C)n3)n2)c1 [Compound I-8]; > 1000 nM

// next item, EC50 requested
Query: Which measured EC50 value corresponds to C=CC(=O)Nc1cccc(N(C(=O)OCc2ccccc2)c2ccnc(Nc3ccn(C)n3)n2)c1 [Compound I-1] ?
Response: < 100 nM

----------
EC50 values for the molecules below.
assayTarget: EGFR InsGY Ba/F3 cell line (Homo sapiens, UniProt P00533, DELINS770-770GY, cells depend on it)
Sequence (P00533 with tags, fused parts or gaps DELINS770-770GY): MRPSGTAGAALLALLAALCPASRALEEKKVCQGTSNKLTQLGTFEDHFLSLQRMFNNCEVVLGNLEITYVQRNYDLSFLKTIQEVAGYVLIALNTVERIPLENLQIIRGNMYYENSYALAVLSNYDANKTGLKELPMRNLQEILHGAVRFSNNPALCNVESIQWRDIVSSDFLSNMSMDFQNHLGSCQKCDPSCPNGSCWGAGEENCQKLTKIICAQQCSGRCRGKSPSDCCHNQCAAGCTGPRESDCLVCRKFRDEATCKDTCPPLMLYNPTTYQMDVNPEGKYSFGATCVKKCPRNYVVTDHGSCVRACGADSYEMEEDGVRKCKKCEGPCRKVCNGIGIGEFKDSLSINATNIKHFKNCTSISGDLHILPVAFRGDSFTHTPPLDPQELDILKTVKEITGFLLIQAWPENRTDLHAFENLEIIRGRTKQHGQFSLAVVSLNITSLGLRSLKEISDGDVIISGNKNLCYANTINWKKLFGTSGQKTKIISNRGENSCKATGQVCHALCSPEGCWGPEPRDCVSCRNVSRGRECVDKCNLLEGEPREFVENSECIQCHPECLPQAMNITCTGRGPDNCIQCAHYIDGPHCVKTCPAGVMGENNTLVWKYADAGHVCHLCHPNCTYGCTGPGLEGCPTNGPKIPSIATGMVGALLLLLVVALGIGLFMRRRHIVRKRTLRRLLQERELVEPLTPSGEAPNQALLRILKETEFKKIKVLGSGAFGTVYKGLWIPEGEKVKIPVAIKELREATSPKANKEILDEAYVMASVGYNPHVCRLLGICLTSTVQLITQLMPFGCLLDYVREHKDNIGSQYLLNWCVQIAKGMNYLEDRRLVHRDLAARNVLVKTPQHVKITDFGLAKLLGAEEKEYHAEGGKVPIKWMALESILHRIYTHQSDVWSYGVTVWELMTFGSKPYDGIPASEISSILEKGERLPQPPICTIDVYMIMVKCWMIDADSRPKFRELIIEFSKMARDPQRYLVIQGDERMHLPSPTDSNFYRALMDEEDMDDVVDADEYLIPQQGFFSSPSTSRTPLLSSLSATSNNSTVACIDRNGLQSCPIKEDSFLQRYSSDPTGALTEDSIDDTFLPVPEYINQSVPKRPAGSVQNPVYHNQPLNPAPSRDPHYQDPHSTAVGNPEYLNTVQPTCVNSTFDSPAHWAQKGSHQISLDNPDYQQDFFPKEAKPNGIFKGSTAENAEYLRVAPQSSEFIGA
method: Ba/F3 cell proliferation MTS assay, EGFR InsGY
measurementConditions: EGFR InsGY (D770delinsGY) Ba/F3 cells, 72 hours

Query: Which measured EC50 value corresponds to C=CC(=O)Nc1cccc(N(C(=O)OCc2ccc(F)cc2)c2ccnc(Nc3cnn(CC(=O)NC)c3)n2)c1 ?
Response: 100 to 500 nM

Query: Quick one: C=CC(=O)Nc1cccc(N(C(=O)OCc2ccc(F)cc2)c2ccnc(Nc3cnn(C4CCN(C)C4)c3)n2)c1 (stereo not shown)
Response: < 100 nM

Query: Quick one: C=CC(=O)Nc1cccc(N(C(=O)OCc2ccc(F)cn2)c2ccnc(Nc3cnn(C)c3)n2)c1
Response: 500 to 1000 nM

Query: Quick one: C=CC(=O)Nc1cccc(N(C(=O)OCc2ccc(F)cc2)c2ccnc(Nc3ccn(C)n3)n2)c1
Response: < 100 nM

----------
assayTarget: EGFR wild type Ba/F3 cell line (Homo sapiens, UniProt P00533, cells depend on it, form not given)
method: Ba/F3 cell proliferation MTS assay, EGFR wild type
measurementConditions: 72 hours
pEC50: −log10 of the molar value.
pEC50 values for the compounds below.

Sample records with pEC50:
C=CC(=O)Nc1cccc(N(C(=O)OCc2cc3ccccc3s2)c2ccnc(Nc3cnn(C)c3)n2)c1; 6.30 to 7.00
C=CC(=O)Nc1cccc(N(C(=O)OCc2ccc(F)cn2)c2ccnc(Nc3cnn(C)c3)n2)c1; > 7.00
C=CC(=O)Nc1cccc(N(C(=O)O[C@H](C)c2ccc(F)cc2)c2ccnc(Nc3cnn(C)c3)n2)c1; > 7.00
C=CC(=O)Nc1cccc(N(C(=O)OCc2ccc(Cl)cc2)c2ccnc(Nc3cnn(C)c3)n2)c1; > 7.00
C=CC(=O)Nc1cccc(N(C(=O)OCc2ccc(F)cc2)c2ccnc(Nc3cnn(C)c3C(F)(F)F)n2)c1; > 7.00
C=CC(=O)Nc1cccc(N(C(=O)OCc2ccc(F)cc2)c2ccnc(Nc3cnn(CCN4CCOCC4)c3)n2)c1; > 7.00

Query: Which measured pEC50 value corresponds to C=CC(=O)Nc1cccc(N(C(=O)OCc2ccc(F)cc2)c2ccnc(Nc3cnn(C)c3C)n2)c1 ?
Response: > 7.00

Query: Quick one: C=CC(=O)Nc1cccc(N(C(=O)OCc2ccc(F)cc2)c2ccnc(Nc3cnn(C4CCN(C)C4)c3)n2)c1 (centres unmarked)
Response: > 7.00

Query: Quick one: C=CC(=O)Nc1cccc(N(C(=O)OCc2cc3ccccc3s2)c2ccnc(Nc3ccn(C)n3)n2)c1
Response: 6.00 to 6.30

Query: Quick one: C=CC(=O)Nc1cccc(N(C(=O)O[C@H](C)c2ccc(F)cc2)c2ccnc(Nc3ccn(C)n3)n2)c1
Response: 6.30 to 7.00

Query: Quick one: Cn1cc(Nc2nccc(N(C(=O)OCc3ccc(F)cc3)c3cccc(NC(=O)/C=C/CN4CCCCCC4)c3)n2)cn1
Response: > 7.00

Query: Quick one: Cn1cc(Nc2nccc(N(C(=O)OCc3ccc(F)cc3)c3cccc(NC(=O)/C=C/CN4CCOCC4)c3)n2)cn1
Response: > 7.00

Query: Quick one: C=CC(=O)Nc1cccc(N(C(=O)O[C@@H](C)c2ccc(F)cc2)c2ccnc(Nc3cnn(C)c3)n2)c1
Response: > 7.00

Query: Quick one: C=CC(=O)Nc1cccc(N(C(=O)OCc2ccc(Cl)cc2)c2ccnc(Nc3ccn(C)n3)n2)c1
Response: 6.30 to 7.00

Query: Quick one: C=CC(=O)Nc1cccc(N(C(=O)OCc2cccc(F)c2)c2ccnc(Nc3cnn(C)c3)n2)c1
Response: > 7.00

Query: Quick one: C=CC(=O)Nc1cccc(N(C(=O)O[C@@H](C)c2ccc(F)cc2)c2ccnc(Nc3ccn(C)n3)n2)c1
Response: > 7.00

Query: Quick one: C=CC(=O)Nc1cccc(N(C(=O)OCc2ccc(F)cc2F)c2ccnc(Nc3cnn(C)c3)n2)c1
Response: > 7.00

Query: Quick one: C=CC(=O)Nc1cccc(N(C(=O)OCc2ccc(F)cn2)c2ccnc(Nc3ccn(C)n3)n2)c1
Response: > 7.00

Query: Quick one: C=CC(=O)Nc1cccc(N(C(=O)OCc2ccc(F)nc2)c2ccnc(Nc3ccn(C)n3)n2)c1
Response: 6.30 to 7.00

Query: Quick one: Cn1cc(Nc2nccc(N(C(=O)OCc3ccc(F)cc3)c3cccc(NC(=O)/C=C/CN4CCCCC4)c3)n2)cn1
Response: > 7.00
